For each of the variants below, state its yeast fitness.
B1: tRNA (parent)
chain: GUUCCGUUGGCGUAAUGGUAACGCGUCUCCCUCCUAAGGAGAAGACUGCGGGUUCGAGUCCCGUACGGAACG

Variants of: B1
Test: yeast fitness relative to wild type (ratio to wild type); higher = fitter; tRNA-Arg(CCU), competitive growth, 37 C, YPD
This sample holds only a part of the variants without activity.
Could you keep your reply to the number by itself?

## Task # get_value(readout='yeast fitness', item= GUUCCGUUGGCGUAGUGGUAACGCGUCUCCCUCCUAAGGAGAAGACUCCGGGUUCGAGUCCCGUACGGAACG [A15G G48C] )
## Result 0.841

## Task # get_value(readout='yeast fitness', item= GUUCCGUUAGCGUAAUGGUAACGCGUCUCCCUUCUAAGGAGAAGACUGCGGGUUGGAGUCCCGUACGGAACG [G9A C33U C55G] )
## Result 0.66

## Task # get_value(readout='yeast fitness', item= GUUCGGUUGGCGUAAUGGUAACGCGUCUCCAUCCUCAGGAGACGACUGCGGGUUGGAGUCCCGUACGGAACG [C5G C31A A36C A43C C55G] )
## Result 1.06

## Task # get_value(readout='yeast fitness', item= GUUCCGUUGGCGUAAUGGUAACGCGUCUCACUCUUAAGGAGAAGACUGCGGGUUCGAGUCCCCUACGGAACG [C30A C34U G63C] )
## Result 0.698

## Task # get_value(readout='yeast fitness', item= GUUCCGUUGACGUAAUGGUAACGCGUCUCCUUCCUAACGAGAAGACUGCGGGUUCGAGUCCCGUACGGAACG [G10A C31U G38C] )
## Result 0.512

## Task # get_value(readout='yeast fitness', item= GUUCGAUUGGCGUAAUGGUAACGCGUCUUCCUGCUAAAGAGAAGACUGCGGGUUCGAGGCCCGUACGGAACG [C5G G6A C29U C33G G38A U59G] )
## Result 0.562

## Task # get_value(readout='yeast fitness', item= GUUCCGUUGGCGUAAUGGUAACGCGUCUCCGUCGUAAGGAGAAGACUGCGGGUUCGAGUCCCGUAAGGAACG [C31G C34G C66A] )
## Result 0.568

## Task # get_value(readout='yeast fitness', item= GUUCCGUUAGCGUAAUGGUAACGCGGCUCCCUCCUAAGGAGAAGACUGCGGGUUCGAGUACCGUACGGAACG [G9A U26G C60A] )
## Result 0.539

## Task # get_value(readout='yeast fitness', item= GCUCCGUUGGCGUAAUGGUAACGCGUUUCCCUCCUAAGGAGAAGAUUACGGGUUCGAGUCCCGUACGGAACG [U2C C27U C46U G48A] )
## Result 0.636

## Task # get_value(readout='yeast fitness', item= GUUCCGUUGGCGUAAUGGUAACGCGCCUCCCUCCUAAGGAGAUGACUGCGGGUUCGAGUCCCGUACGGAUCG [U26C A43U A70U] )
## Result 0.707

## Task # get_value(readout='yeast fitness', item= GUUCCGUUGGCGUAAUGGUAACGCGUCUCCCUCCUAAGGAGAAGACUCCGGCUUCGAGUCCCGUACGGAACG [G48C G52C] )
## Result 0.552

## Task # get_value(readout='yeast fitness', item= GUUCCGUUGGCGUAAUGGUAACGAGUCUCCCUUCUAAGGAGAAGACUGCGGGUUCGAGUCCCGUACGGAACG [C24A C33U] )
## Result 0.601
